B1: PTPRD (parent)
chain: MVHVARLLLLLLTFFLRTDAETPP

variants of: B1; test: protein stability index of a GFP-peptide fusion (GPS, HEK-293T) (PSI 1-6); higher = more stable; conditions: c terminus: a fixed tail appended;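 note: lentivirally expressed fusions sorted by FACS into six bins by GFP to DsRed ratio, PSI derived from sequencing read proportions per bin multiplied by bin number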
Parameter: protein stability index. Scope: all listed entries.

variant: T13N
protein stability index: 2.05
--
variant: T18C
protein stability index: 1.86
--
variant: F14G
protein stability index: 1.48

## Task Can you look up the measured protein stability index of R6L for me?
## Result 1.9

## Task Follow-up item: L16D
## Result 3.53
